# protocol: self-splicing fitness, log relative to wild type (ln ratio); higher = more splicing; Tetrahymena group I intron in knt gene, E. coli kanamycin selection, DiMSum; sequences stand for … in CUCUCU…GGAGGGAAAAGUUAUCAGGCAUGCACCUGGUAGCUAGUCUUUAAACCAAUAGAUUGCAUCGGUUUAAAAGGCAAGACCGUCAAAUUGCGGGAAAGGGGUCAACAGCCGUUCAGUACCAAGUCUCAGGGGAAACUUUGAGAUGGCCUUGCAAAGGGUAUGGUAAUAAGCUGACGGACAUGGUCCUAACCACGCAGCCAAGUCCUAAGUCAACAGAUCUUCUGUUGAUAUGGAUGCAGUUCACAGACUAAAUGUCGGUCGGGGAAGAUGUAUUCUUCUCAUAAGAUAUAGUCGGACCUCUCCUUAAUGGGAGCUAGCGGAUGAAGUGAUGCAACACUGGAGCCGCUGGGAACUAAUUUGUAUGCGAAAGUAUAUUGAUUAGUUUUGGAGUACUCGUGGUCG;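 note: selection with 25 µg/mL kanamycin versus none on LB agar overnight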
# study.conditions: 37 °C
self-splicing fitness (ln) below -1 gives Not met; self-splicing fitness (ln) at or above it gives Met.

Tell me whether self-splicing fitness (ln) is at least -1 here: `CAUAAGCAAUAUUACGCCAC`
Not met

Tell me whether self-splicing fitness (ln) is at least -1 here: `UAAAAGCAAUAUUACGACGG`
Met

Tell me whether self-splicing fitness (ln) is at least -1 here: `UUCAAGCAAUAUUACGGUAG`
Met

Tell me whether self-splicing fitness (ln) is at least -1 here: `GAGAAGCAAUAUUACGAGCU`
Met

Tell me whether self-splicing fitness (ln) is at least -1 here: `CUGGAGCAAUAUUACGCAUA`
Not met

Tell me whether self-splicing fitness (ln) is at least -1 here: `UGGUAGCAAUAUUACGGGUU`
Not met

Tell me whether self-splicing fitness (ln) is at least -1 here: `GUGCAGCAAUAUUACGUCUC`
Met

Tell me whether self-splicing fitness (ln) is at least -1 here: `GGCCAGCAAUAUUACGCUCG`
Met

Tell me whether self-splicing fitness (ln) is at least -1 here: `AAGGAGCAAUAUUACGCGGA`
Not met

Tell me whether self-splicing fitness (ln) is at least -1 here: `ACAUAGCAAUAUUACGUACG`
Not met

Tell me whether self-splicing fitness (ln) is at least -1 here: `AGUUAGCAAUAUUACGGUCA`
Met

Tell me whether self-splicing fitness (ln) is at least -1 here: `AGGUAGCAAUAUUACGCGUC`
Not met

Tell me whether self-splicing fitness (ln) is at least -1 here: `GCAAAGCAAUAUUACGCCCG`
Not met

Value source: the supplement of paper PMC7877785
